test system: VDR homodimer (NR concentration 270 nM); experiment: PBM binding z-score (relative to random genomic background probes); higher = stronger binding; sequences stand for … in GC…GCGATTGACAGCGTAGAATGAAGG
For each record, write down the corresponding PBM binding z-score.
Lab note: jot the number down without any unit.

Request: Note PBM binding z-score for the sequence shown: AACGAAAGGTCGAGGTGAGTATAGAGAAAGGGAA
Response: 0.21

Request: Note PBM binding z-score for the sequence shown: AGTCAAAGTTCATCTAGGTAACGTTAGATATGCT
Response: 5.6

Request: Note PBM binding z-score for the sequence shown: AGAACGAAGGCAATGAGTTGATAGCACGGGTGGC
Response: -0.223

Request: Note PBM binding z-score for the sequence shown: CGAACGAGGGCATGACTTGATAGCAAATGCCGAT
Response: 0.849

Request: Note PBM binding z-score for the sequence shown: GATACAGGGTCAAGGCCAGTGTACGCGTATTGAT
Response: 2.13

Request: Note PBM binding z-score for the sequence shown: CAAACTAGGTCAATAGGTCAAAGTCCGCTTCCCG
Response: 2.03

Request: Note PBM binding z-score for the sequence shown: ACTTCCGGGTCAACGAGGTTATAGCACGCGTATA
Response: 4.34

Request: Note PBM binding z-score for the sequence shown: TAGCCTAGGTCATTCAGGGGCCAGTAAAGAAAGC
Response: 1.24

Request: Note PBM binding z-score for the sequence shown: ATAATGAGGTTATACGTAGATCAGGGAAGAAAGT
Response: 1.16

Request: Note PBM binding z-score for the sequence shown: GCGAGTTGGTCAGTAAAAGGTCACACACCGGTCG
Response: 2.27

Request: Note PBM binding z-score for the sequence shown: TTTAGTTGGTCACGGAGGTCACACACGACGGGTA
Response: 3.7

Request: Note PBM binding z-score for the sequence shown: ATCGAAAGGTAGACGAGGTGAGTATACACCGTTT
Response: -0.467

Request: Note PBM binding z-score for the sequence shown: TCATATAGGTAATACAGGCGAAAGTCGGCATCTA
Response: -0.187

Request: Note PBM binding z-score for the sequence shown: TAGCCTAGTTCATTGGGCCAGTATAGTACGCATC
Response: 2.72

Request: Note PBM binding z-score for the sequence shown: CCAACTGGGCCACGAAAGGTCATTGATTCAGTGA
Response: 2.32

Request: Note PBM binding z-score for the sequence shown: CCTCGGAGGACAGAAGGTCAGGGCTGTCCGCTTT
Response: 0.107

Request: Note PBM binding z-score for the sequence shown: CAAACTAGGTCTAGAGGTCAAAGTCCGCTTCCCG
Response: 4.46

Request: Note PBM binding z-score for the sequence shown: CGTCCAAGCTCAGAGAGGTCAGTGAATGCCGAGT
Response: 2.2

Request: Note PBM binding z-score for the sequence shown: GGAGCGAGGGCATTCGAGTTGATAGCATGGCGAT
Response: 3.06

Request: Note PBM binding z-score for the sequence shown: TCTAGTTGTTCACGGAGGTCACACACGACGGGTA
Response: 3.06

Request: Note PBM binding z-score for the sequence shown: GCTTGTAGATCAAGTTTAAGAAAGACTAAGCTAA
Response: 0.27

Request: Note PBM binding z-score for the sequence shown: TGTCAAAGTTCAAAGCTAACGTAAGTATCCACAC
Response: 3.56

Request: Note PBM binding z-score for the sequence shown: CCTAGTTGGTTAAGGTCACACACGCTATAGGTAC
Response: 4.12

Request: Note PBM binding z-score for the sequence shown: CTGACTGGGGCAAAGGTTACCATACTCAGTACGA
Response: 0.376

Request: Note PBM binding z-score for the sequence shown: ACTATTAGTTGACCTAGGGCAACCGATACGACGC
Response: 0.946

Request: Note PBM binding z-score for the sequence shown: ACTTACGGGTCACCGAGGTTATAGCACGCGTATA
Response: 4.59

* * *

For each record, write down the corresponding PBM binding z-score.
tested on: RARg:RXRa (NR concentration 270 nM, RXRa partner concentration 90 nM); experiment: PBM binding z-score (relative to random genomic background probes); higher = stronger binding; sequences stand for … in GC…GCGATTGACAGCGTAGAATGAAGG

Request: Note PBM binding z-score for the sequence shown: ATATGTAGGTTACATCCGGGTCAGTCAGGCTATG
Response: 3.29

Request: Note PBM binding z-score for the sequence shown: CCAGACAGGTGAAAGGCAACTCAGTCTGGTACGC
Response: 0.225

Request: Note PBM binding z-score for the sequence shown: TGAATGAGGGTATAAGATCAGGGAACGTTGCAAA
Response: 0.617

Request: Note PBM binding z-score for the sequence shown: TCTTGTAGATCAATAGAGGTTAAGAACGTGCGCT
Response: 0.792

Request: Note PBM binding z-score for the sequence shown: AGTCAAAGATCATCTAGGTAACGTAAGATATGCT
Response: 0.163

Request: Note PBM binding z-score for the sequence shown: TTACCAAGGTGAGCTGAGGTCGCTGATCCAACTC
Response: 1.33

* * *

test system: FXR:RXRa (NR concentration 270 nM, RXRa partner concentration 90 nM); assay: PBM binding z-score (relative to random genomic background probes); higher = stronger binding; sequences stand for … in GC…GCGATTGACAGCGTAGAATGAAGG
measurement label: PBM binding z-score

Request: Note PBM binding z-score for the sequence shown: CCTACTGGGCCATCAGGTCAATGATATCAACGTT
Response: 1.53

Request: Note PBM binding z-score for the sequence shown: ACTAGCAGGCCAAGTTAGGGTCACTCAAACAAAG
Response: 1.87

Request: Note PBM binding z-score for the sequence shown: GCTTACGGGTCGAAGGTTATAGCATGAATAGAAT
Response: 2.01

Request: Note PBM binding z-score for the sequence shown: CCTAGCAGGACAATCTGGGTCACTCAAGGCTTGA
Response: 1.05

Request: Note PBM binding z-score for the sequence shown: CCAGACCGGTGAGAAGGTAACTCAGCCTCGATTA
Response: -0.29

Request: Note PBM binding z-score for the sequence shown: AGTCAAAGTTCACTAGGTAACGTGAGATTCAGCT
Response: 4.64

Request: Note PBM binding z-score for the sequence shown: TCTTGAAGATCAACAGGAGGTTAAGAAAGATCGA
Response: 0.539

Request: Note PBM binding z-score for the sequence shown: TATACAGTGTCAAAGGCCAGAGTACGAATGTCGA
Response: 0.666

Request: Note PBM binding z-score for the sequence shown: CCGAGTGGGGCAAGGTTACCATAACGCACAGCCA
Response: 0.236

Request: Note PBM binding z-score for the sequence shown: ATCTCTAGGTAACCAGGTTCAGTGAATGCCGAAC
Response: 0.339

Request: Note PBM binding z-score for the sequence shown: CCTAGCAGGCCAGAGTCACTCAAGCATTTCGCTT
Response: -0.525

Request: Note PBM binding z-score for the sequence shown: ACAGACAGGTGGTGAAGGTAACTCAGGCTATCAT
Response: -0.0169

Request: Note PBM binding z-score for the sequence shown: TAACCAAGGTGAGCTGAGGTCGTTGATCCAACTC
Response: 2.66

Request: Note PBM binding z-score for the sequence shown: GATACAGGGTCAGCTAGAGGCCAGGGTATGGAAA
Response: 4.42

Request: Note PBM binding z-score for the sequence shown: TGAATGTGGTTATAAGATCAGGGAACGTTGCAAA
Response: 0.123

Request: Note PBM binding z-score for the sequence shown: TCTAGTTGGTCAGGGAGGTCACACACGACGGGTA
Response: 3.15

Request: Note PBM binding z-score for the sequence shown: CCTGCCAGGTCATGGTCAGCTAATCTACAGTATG
Response: 3.97

Request: Note PBM binding z-score for the sequence shown: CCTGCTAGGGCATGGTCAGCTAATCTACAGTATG
Response: -0.287

Request: Note PBM binding z-score for the sequence shown: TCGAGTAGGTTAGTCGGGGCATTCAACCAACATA
Response: 0.19

Request: Note PBM binding z-score for the sequence shown: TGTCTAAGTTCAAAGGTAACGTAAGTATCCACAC
Response: 4.9

Request: Note PBM binding z-score for the sequence shown: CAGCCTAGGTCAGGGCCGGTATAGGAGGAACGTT
Response: 1.62

Request: Note PBM binding z-score for the sequence shown: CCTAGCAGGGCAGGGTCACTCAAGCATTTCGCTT
Response: 2.68

Request: Note PBM binding z-score for the sequence shown: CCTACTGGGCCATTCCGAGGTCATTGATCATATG
Response: 2.71

Request: Note PBM binding z-score for the sequence shown: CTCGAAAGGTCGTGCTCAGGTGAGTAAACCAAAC
Response: 5.29

Request: Note PBM binding z-score for the sequence shown: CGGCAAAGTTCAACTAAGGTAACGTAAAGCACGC
Response: 7.42

Request: Note PBM binding z-score for the sequence shown: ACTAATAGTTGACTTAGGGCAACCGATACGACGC
Response: 0.35
